# TEST_NAME: Cytotoxicity against african green monkey Vero cells assessed as growth inhibition at 10 times MIC after 24 hrs by MTS assay
# Type: cell-based
# ASSAY_CONDITIONS: chlorocebus sabaeus, Vero cells; read-out: GI
VALUE_TYPE: inhibition at 24 h, 10 times MIC

SMILES_DATA: O=C(/C=C/c1ccc(-n2ccnc2)cc1)c1ccc(OCc2cc(Cl)ccc2Cl)cc1
inhibition at 24 h, 10 times MIC: 50%

SMILES_DATA: O=C(/C=C/c1ccc(OCc2cccc(Cl)c2)cc1)c1ccc(-n2ccnc2)cc1
inhibition at 24 h, 10 times MIC: 50%

*Q* Value lookup for inhibition at 24 h, 10 times MIC; key = `O=C(/C=C/c1ccc(-n2cncn2)cc1)c1ccc(OCc2cc(F)ccc2F)cc1`
*A* 50%
